System: A498 renal
Experiment: NCI-60 one-dose screen, 48 h
Details: 10 µM
Compounds without any hit were thinned out: in the full panel of roughly 83,000, 20% have a hit. Active and inactive are the calls of the source. Rule for the calls: active = growth percent below 10; inactive = the rest.
The reply should name one outcome from active, inactive

| compound | classification |
| --- | --- |
| COC(=O)CC12CC(NC(=O)c3csc([C@@H](C[C@H](C(C)C)N(C)C(=O)[C@@H](NC(=O)[C@H]4CCCCN4C)C(C)C)OC(C)=O)n3)(C1)C2 | active |

IN: // param item: CC(=O)O[C@H](C[C@H](C(C)C)N(C)C(=O)[C@@H](NC(=O)[C@H]1CCCCN1C)C(C)C)c1nc(C(=O)NC2CCC(C(=O)O)CC2)cs1 (stereo not given in full) ; yields the recorded call
OUT: inactive

IN: Lab log entry: COC(=O)[C@@H](C)C[C@H](Cc1ccccc1)NC(=O)c1csc([C@@H](C[C@H](C(C)C)N(C)C(=O)[C@@H](NC(=O)[C@H]2CCCCN2C)c2ccc(F)cc2)OC(C)=O)n1 — outcome as called in the assay?
OUT: active

IN: // return assay outcome for CCn1c2ccccc2c2cc(C(=O)c3ccc(C)c4ccccc34)ccc21
OUT: active

IN: How did this test come out for CC1(C)N=C(N)N=C(N)N1c1ccc(OCCCNC(=O)Nc2ccc(S(=O)(=O)F)cc2)c(Cl)c1 ?
OUT: inactive

IN: Short answer needed: outcome of this test for COC(=O)CC[C@H](Cc1ccccc1)NC(=O)c1csc([C@@H](C[C@H](C(C)C)N(C)C(=O)[C@@H](NC(=O)[C@H]2CCCCN2C)C(C)C)OC(C)=O)n1 ?
OUT: active

IN: What classification did O=[N+]([O-])c1cc([N+](=O)[O-])c(Cl)cc1Cl end up with in this test?
OUT: inactive

IN: In this assay, the call recorded for CC[C@]12C=CCN3CC[C@]4(C(=C(C(=O)OC)C1)Nc1cc(OC)c(OC(C)=O)cc14)[C@@H]32 was what?
OUT: active

IN: Tell me the assay call for CC1=C(CCCNS(C)(=O)=O)C2=C(C)C3(CC3)[C@@](C)(O)C(=O)C2=C1 please.
OUT: active

IN: So what was the verdict on CC(C)=CCc1c(O)c(C(=O)CC(C)C)c(O)c2c(-c3ccccc3)cc(=O)oc12 in this test?
OUT: inactive

IN: Check the results log: what was the call for CC1=C2[C@@H](CC1)[C@]1(C)O[C@@](C(C)C)(C[C@H]1O)[C@H]2OC(=O)C1CC1c1ccccc1 (stereo not given in full) ?
OUT: inactive

IN: Dear all, I need the recorded test outcome for C[S+]1C=Cc2ccccc2C1c1ccc(Cl)cc1 (stereo not given) , thank you.
OUT: inactive

IN: Can you look up the reported call for CC(=O)O[C@H](C[C@H](C(C)C)N(C)C(=O)[C@@H](NC(=O)[C@H]1CCCN1C)C(C)C)c1nc(C(=O)N[C@@H](Cc2ccccc2)C[C@H](C)C(=O)O)c(C)s1 for me?
OUT: active

IN: What did this assay record as the result for CC(=O)OC[C@]1(C)C=C2C(=O)[C@](C)(O)C3(CC3)C(C)=C2[C@H]1OC(=O)N(C)CCN(C)C(=O)OC(C)(C)C ?
OUT: active

IN: Recorded test outcome, item CC(C)[C@@H]1NC(=O)[C@]2(C)CSC(=N2)c2csc(n2)CNC(=O)C[C@@H](/C=C/CCS)OC1=O
OUT: active

src = PubChem BioAssay (NCI)
